Measured values drawn from patent US10889573B2 for this set.

target: C. elegans Slo-1a (Caenorhabditis elegans, UniProt Q95V25); details: pE50 (negative decadic logarithm of EC50), CHO cells expressing C. elegans Slo-1a, voltage sensitive dye
Sequence (Q95V25 whole entry): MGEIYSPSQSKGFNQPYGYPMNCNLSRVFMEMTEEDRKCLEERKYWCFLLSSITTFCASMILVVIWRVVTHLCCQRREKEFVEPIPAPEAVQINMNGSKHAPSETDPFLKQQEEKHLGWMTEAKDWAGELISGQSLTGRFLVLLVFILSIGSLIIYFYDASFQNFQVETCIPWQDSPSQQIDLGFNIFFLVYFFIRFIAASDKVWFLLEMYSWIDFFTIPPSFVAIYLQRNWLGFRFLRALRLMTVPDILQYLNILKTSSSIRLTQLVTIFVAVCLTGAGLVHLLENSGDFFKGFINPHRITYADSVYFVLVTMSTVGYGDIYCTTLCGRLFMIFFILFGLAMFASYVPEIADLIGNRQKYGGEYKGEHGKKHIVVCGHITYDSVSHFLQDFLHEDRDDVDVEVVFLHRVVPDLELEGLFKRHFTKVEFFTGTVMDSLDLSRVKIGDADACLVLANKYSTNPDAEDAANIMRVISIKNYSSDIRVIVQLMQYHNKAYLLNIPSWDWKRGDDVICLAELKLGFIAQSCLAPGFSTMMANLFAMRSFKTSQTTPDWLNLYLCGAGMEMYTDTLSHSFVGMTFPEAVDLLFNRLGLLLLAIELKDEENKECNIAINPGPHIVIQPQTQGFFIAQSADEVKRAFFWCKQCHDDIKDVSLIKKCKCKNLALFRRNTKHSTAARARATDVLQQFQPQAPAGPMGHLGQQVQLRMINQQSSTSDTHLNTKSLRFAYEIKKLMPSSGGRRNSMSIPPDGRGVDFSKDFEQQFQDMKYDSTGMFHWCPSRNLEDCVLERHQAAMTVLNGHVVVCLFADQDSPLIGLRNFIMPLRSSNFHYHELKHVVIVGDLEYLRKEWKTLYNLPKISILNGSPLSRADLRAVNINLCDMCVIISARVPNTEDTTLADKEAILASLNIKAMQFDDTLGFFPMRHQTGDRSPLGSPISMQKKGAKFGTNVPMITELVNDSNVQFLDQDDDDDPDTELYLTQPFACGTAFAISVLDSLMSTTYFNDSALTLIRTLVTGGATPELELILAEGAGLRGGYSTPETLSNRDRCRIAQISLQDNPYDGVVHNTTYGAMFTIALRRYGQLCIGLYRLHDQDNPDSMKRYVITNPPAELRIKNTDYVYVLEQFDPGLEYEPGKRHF
Quantity Kind: EC50

COC(=O)CNc1c(C(=O)N[C@H]2CCOc3ccccc32)cnc2c(-c3cc(Cl)cc(Cl)c3)cccc12    3.16 to 31.6 nM
CN(C)c1c(C(=O)N[C@H]2CCOc3ccccc32)cnc2c(-c3cc(Cl)ccc3F)cccc12    < 3.16 nM
CN(C)c1c(C(=O)N[C@H]2CCOc3ccccc32)cnc2c(-c3ccc(C#N)s3)cccc12    31.6 to 316 nM
COc1ccc(-c2cc(Cl)cc(Cl)c2)c2ncc(C(=O)N[C@H]3CCOc4ccccc43)c(N(C)C)c12    < 3.16 nM
